# Experimental system: WIL-FL (Homo sapiens)
# Test method notes: Unlabeled LC Protease Sensitivity Assay (proteinase K)
# Format: biochemical
# Reported conditions: small molecule 10 μM, WIL-FL 5 μM, proteinase K 50 nM, 2 hours at 37° C.
Value kind: Protection (fold protection of LC from protease)

[[record]]
smiles_entry = "CCN(CC)c1ccc2c(C)c(CCN3CC4(CCN(c5ccccc5)CC4)NC3=O)c(=O)oc2c1"
value_observed = "B (3 ≤ B < 0.6)"

[[record]]
smiles_entry = "CCN(CC)c1ccc2c(C)c(CCOC(=O)N3CCS(=O)(=O)CC3)c(=O)oc2c1"
value_observed = "A (A < 0.3))"

[[record]]
smiles_entry = "CCN(CC)c1ccc2c(C)c(CCNC(=O)NCc3nccc4ccccc34)c(=O)oc2c1"
value_observed = "C (C ≥ 0.6)"

[[record]]
smiles_entry = "Cc1cc(=O)oc2cc(C(=O)Nc3ccc4ncccc4c3)ccc12"
value_observed = "A (A < 0.3))"

[[record]]
smiles_entry = "CCN(CC)c1ccc2c(C)c(CCN3C(=O)NC4(CCN(C(=O)c5cncnc5)CC4)C3=O)c(=O)oc2c1"
value_observed = "B (3 ≤ B < 0.6)"

[[record]]
smiles_entry = "CCN(CC)c1ccc2c(C)c(CCNC(=O)NCc3cccc(S(N)(=O)=O)c3)c(=O)oc2c1"
value_observed = "B (3 ≤ B < 0.6)"

[[record]]
smiles_entry = "Cc1cc(=O)oc2cc(N3CCCCC3)ccc12"
value_observed = "A (A < 0.3))"

[[record]]
smiles_entry = "CCN(CC#N)c1ccc2c(C)cc(=O)oc2c1"
value_observed = "A (A < 0.3))"

[[record]]
smiles_entry = "CCN(CC)c1ccc2c(C)c(CC(=O)NCCc3ccccc3)c(=O)oc2c1"
value_observed = "A (A < 0.3))"

[[record]]
smiles_entry = "C=C(C)CN(CC(=C)C)c1ccc2c(C)cc(=O)oc2c1"
value_observed = "A (A < 0.3))"


Now let's try a different one.
Query: Recorded Protection (fold protection of LC from protease) for CCN(CC)c1ccc2c(C)c(CCNC(=O)NCc3ccc4ccccc4c3)c(=O)oc2c1 , please?
Response: C (C ≥ 0.6)
